Assay: HCT-116 Cellular Cytotoxicity Assay
Conditions: human, HCT-116 cells, pH 7.2
REPORTED_PROPERTY: EC50 at 72 h (µM)
Give the value in µM but do not write µM after it.

Provide one value: measured EC50 at 72 h of O=C(Nc1ccc(N2CCOCC2)cc1)c1cc([N+](=O)[O-])c(Sc2c(Cl)cncc2Cl)s1 [Example 157]
27.3

Supply EC50 at 72 h value. Item: COc1ccc(NC(=O)c2cc([N+](=O)[O-])c(Sc3c(Cl)cncc3Cl)s2)cc1 [Example 155]
5.49

Please supply the value of reported EC50 at 72 h for the item CC(=O)c1cc([N+](=O)[O-])c(Sc2c(Cl)cccc2Cl)s1 [Example 7]
30.6

Retrieve EC50 at 72 h measured for CN(C)CCC(=O)c1cc([N+](=O)[O-])c(Sc2ccc(Cl)cc2Cl)s1 [Example 24] and print it.
27.3

###

Could you please report measured EC50 for the items listed next?
Molecular target: USP7 (Homo sapiens, UniProt Q93009)
Construct: full length human USP7 protein
Sequence (Q93009 whole entry): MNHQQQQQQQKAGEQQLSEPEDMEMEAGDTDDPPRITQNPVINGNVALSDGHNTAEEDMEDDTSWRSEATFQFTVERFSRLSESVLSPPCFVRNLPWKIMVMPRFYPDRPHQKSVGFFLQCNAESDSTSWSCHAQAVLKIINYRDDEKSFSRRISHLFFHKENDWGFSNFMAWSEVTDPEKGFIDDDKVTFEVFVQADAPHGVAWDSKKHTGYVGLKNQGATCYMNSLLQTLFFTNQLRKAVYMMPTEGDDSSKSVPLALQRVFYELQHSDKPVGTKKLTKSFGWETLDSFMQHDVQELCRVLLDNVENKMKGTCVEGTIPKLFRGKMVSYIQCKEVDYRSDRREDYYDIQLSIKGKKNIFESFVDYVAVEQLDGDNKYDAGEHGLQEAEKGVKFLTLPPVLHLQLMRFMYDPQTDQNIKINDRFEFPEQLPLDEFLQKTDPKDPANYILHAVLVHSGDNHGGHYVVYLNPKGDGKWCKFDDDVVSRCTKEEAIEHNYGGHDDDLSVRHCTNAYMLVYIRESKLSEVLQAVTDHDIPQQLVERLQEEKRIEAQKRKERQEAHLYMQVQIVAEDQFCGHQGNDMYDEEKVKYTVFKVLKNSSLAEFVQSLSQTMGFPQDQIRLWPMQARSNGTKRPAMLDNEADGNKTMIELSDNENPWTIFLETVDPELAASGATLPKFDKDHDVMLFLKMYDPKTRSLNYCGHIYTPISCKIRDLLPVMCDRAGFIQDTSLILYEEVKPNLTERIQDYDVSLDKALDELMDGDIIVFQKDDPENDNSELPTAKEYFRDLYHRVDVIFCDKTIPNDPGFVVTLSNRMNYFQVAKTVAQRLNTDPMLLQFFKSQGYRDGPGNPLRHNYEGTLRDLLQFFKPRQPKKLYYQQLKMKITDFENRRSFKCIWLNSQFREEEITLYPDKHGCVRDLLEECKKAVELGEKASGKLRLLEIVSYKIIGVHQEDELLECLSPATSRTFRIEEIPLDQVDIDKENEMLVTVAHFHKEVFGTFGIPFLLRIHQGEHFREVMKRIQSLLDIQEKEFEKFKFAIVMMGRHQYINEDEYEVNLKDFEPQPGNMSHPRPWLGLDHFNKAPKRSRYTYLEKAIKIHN
Test: USP7, Ub-PLA2 assay
Conditions: Ub-PLA2 / NBD C6-HPC fluorescence, 30 minute preincubation; read-out: EC50 for inhibition of USP7

# assay system USP7 (Homo sapiens, UniProt Q93009): give EC50 of CS(=O)(=O)c1cc([N+](=O)[O-])c(Sc2c(Cl)cncc2Cl)s1
1000 to 10000 nM

Report EC50 on USP7 (Homo sapiens, UniProt Q93009) for this entry: O=C(Nc1nccs1)c1cc([N+](=O)[O-])c(Sc2c(Cl)cncc2Cl)s1
≤ 1000 nM

Lab note: record EC50 of CN1CCC(NS(=O)(=O)c2cc([N+](=O)[O-])c(Sc3c(Cl)cncc3Cl)s2)CC1 tested on USP7 (Homo sapiens, UniProt Q93009).
1000 to 10000 nM

Provide EC50, recorded with USP7 (Homo sapiens, UniProt Q93009), of CN1CCN(CCCNC(=O)c2cc([N+](=O)[O-])c(Sc3c(Cl)cncc3Cl)s2)CC1
1000 to 10000 nM

Name the value of EC50 reported for CN(C)CCCOc1ccc(NC(=O)c2cc([N+](=O)[O-])c(Sc3c(Cl)cncc3Cl)s2)cc1 when tested on USP7 (Homo sapiens, UniProt Q93009).
≤ 1000 nM

GET EC50 where system = USP7 (Homo sapiens, UniProt Q93009) and item = CSCCCNC(=O)c1cc([N+](=O)[O-])c(Sc2c(Cl)cncc2Cl)s1
≤ 1000 nM

Write EC50 of O=C(NCCc1ccccc1F)c1cc([N+](=O)[O-])c(Sc2c(Cl)cncc2Cl)s1 ; system used: USP7 (Homo sapiens, UniProt Q93009)
≤ 1000 nM

Specify the recorded EC50 for CNC(=O)c1cc([N+](=O)[O-])c(Sc2cccc(Cl)c2Cl)s1 , system: USP7 (Homo sapiens, UniProt Q93009).
1000 to 10000 nM

###

I'd be grateful if you could share measured EC50 for these entries.
Target: USP7 (Homo sapiens, UniProt Q93009)
Construct: full length human USP7 protein
Experiment: USP7, Ub-PLA2 assay
Conditions: Ub-PLA2 / NBD C6-HPC fluorescence, 30 minute preincubation; read-out: EC50 for inhibition of USP7

Quote EC50 reported for O=C(Nc1ccccc1Cl)c1cc([N+](=O)[O-])c(Sc2c(Cl)cncc2Cl)s1 please.
≤ 1 µM

Please indicate EC50 recorded for COc1ccc(NC(=O)c2cc([N+](=O)[O-])c(Sc3c(Cl)cncc3Cl)s2)cc1OC
≤ 1 µM

Give the measured EC50 for CN1CCC(NC(=O)c2cc([N+](=O)[O-])c(Sc3c(Cl)cncc3Cl)s2)C1 (centres unmarked)
1 to 10 µM

Give the measured EC50 for CC(C)(C)OC(=O)CNC(=O)c1cc([N+](=O)[O-])c(Sc2c(Cl)cncc2Cl)s1
1 to 10 µM

Determine from records and report EC50 for CSc1ccc(CNC(=O)c2cc([N+](=O)[O-])c(Sc3c(Cl)cncc3Cl)s2)cc1
≤ 1 µM

Name the recorded EC50 of the compound listed here: CC(c1cc([N+](=O)[O-])c(Sc2ccc(Cl)cc2Cl)s1)N(C)C (centres unmarked)
> 10 µM

// fetch EC50 given entry O=C(NCc1ccccc1)c1cc([N+](=O)[O-])c(Sc2nc3ccccc3s2)s1
1 to 10 µM

For O=C(NCc1ccc(Cl)nc1)c1cc([N+](=O)[O-])c(Sc2c(Cl)cncc2Cl)s1 , write its EC50.
≤ 1 µM

Entry Cc1cnc(NC(=O)c2cc([N+](=O)[O-])c(Sc3c(Cl)cncc3Cl)s2)s1 needs its EC50 filled in; supply it.
1 to 10 µM

Identify measured EC50 corresponding to CN(C)CCCOc1ccc(NC(=O)c2cc(C#N)c(Sc3c(Cl)cncc3Cl)s2)cc1
1 to 10 µM

Tell us which EC50 value is on record for O=C(NCCc1ccc(F)cc1)c1cc([N+](=O)[O-])c(Sc2c(Cl)cncc2Cl)s1
≤ 1 µM

Recall and state the measured EC50 for CN(C)CCNC(=O)CNC(=O)c1cc([N+](=O)[O-])c(Sc2c(Cl)cncc2Cl)s1 .
1 to 10 µM

Determine from records and report EC50 for O=C(Nc1cc(C2CC2)n[nH]1)c1cc([N+](=O)[O-])c(Sc2c(Cl)cncc2Cl)s1
≤ 1 µM

Consider the compound COc1cccc(CN(C)C(=O)c2cc([N+](=O)[O-])c(Sc3c(Cl)cncc3Cl)s2)c1 and give its recorded EC50.
1 to 10 µM

State its EC50: CC(=O)c1cc([N+](=O)[O-])c(S(=O)(=O)c2ccc(Cl)cc2Cl)s1
1 to 10 µM

Provide only the value of recorded EC50 for CN1CCC(NC(=O)CNC(=O)c2cc([N+](=O)[O-])c(Sc3c(Cl)cncc3Cl)s2)CC1
≤ 1 µM

Assign EC50 to the following record: O=C(NCc1cccc(OC(F)(F)F)c1)c1cc([N+](=O)[O-])c(Sc2c(Cl)cncc2Cl)s1
1 to 10 µM

Consider the compound O=C(Nc1ccc(O)cc1)c1cc([N+](=O)[O-])c(Sc2c(Cl)cncc2Cl)s1 . State its measured EC50.
≤ 1 µM

Specify reported EC50 for the compound shown: Cc1cnc(CNC(=O)c2cc([N+](=O)[O-])c(Sc3c(Cl)cncc3Cl)s2)cn1
≤ 1 µM

Look up EC50 of O=C(Nc1ccc2ncccc2c1)c1cc([N+](=O)[O-])c(Sc2c(Cl)cncc2Cl)s1 and report it.
≤ 1 µM

Supply reported EC50 belonging to this compound: CC(=O)c1cc([N+](=O)[O-])c(Sc2cc(C(F)(F)F)cc(C(F)(F)F)c2)s1
1 to 10 µM

Quick one: give measured EC50 for CS(=O)(=O)N1CCC(NC(=O)c2cc([N+](=O)[O-])c(Sc3c(Cl)cncc3Cl)s2)CC1
≤ 1 µM

Dear colleague, please send me the reported EC50 for CC(=O)c1ccc(NC(=O)c2cc([N+](=O)[O-])c(Sc3c(Cl)cncc3Cl)s2)cc1 when you can.
≤ 1 µM

Please supply the value of reported EC50 for the item COc1cc(CNC(=O)c2cc([N+](=O)[O-])c(Sc3c(Cl)cncc3Cl)s2)cc(OC)c1
1 to 10 µM

Give me measured EC50, please, for this compound: CC(=O)c1cc([N+](=O)[O-])c(Sc2ccc(C(F)(F)F)cc2)s1
1 to 10 µM

Assign EC50 to the following record: O=C(Nc1cc(F)ccc1F)c1cc([N+](=O)[O-])c(Sc2c(Cl)cncc2Cl)s1
≤ 1 µM

Answer with the recorded EC50 for the compound listed here: Cc1nc(NC(=O)c2cc([N+](=O)[O-])c(Sc3c(Cl)cncc3Cl)s2)sc1C
1 to 10 µM

Please look at this compound and report its EC50: CS(=O)(=O)c1cccc(CNC(=O)c2cc([N+](=O)[O-])c(Sc3c(Cl)cncc3Cl)s2)c1
≤ 1 µM

Return reported EC50. Input compound: O=C(NCCCN1CCCC1)c1cc([N+](=O)[O-])c(Sc2c(Cl)cncc2Cl)s1
≤ 1 µM

Please report the measured EC50 for O=C(Nc1ccc(F)c(Cl)c1)c1cc([N+](=O)[O-])c(Sc2c(Cl)cncc2Cl)s1
≤ 1 µM

Please look at this compound and report its EC50: CC(=O)c1cc([N+](=O)[O-])c(Sc2c(F)c(F)cc(F)c2F)s1
1 to 10 µM

Determine from records and report EC50 for O=C(NC1CCC(O)CC1)c1cc([N+](=O)[O-])c(Sc2c(Cl)cncc2Cl)s1 (centres unmarked)
1 to 10 µM

###

Biological target: USP7 (Homo sapiens, UniProt Q93009)
Construct: full length human USP7 protein
Assay: USP7, Ub-PLA2 assay
Details: Ub-PLA2 / NBD C6-HPC fluorescence, 30 minute preincubation; read-out: EC50 for inhibition of USP7
REPORTED_PROPERTY: EC50

Give the reported EC50 for this compound. COc1cncc(CNC(=O)c2cc([N+](=O)[O-])c(Sc3c(Cl)cncc3Cl)s2)c1
≤ 1000 nM

Consider the compound NC(=O)c1cc([N+](=O)[O-])c(Sc2c(Cl)cncc2Cl)s1 and give its recorded EC50.
1000 to 10000 nM

Hello, please tell me recorded EC50 for this one: Cc1nc(C)c(Cl)c(Sc2sc(C(=O)NC3CCN(C)CC3)cc2[N+](=O)[O-])c1Cl
1000 to 10000 nM

Using known records, supply EC50 for CC(=O)c1cc([N+](=O)[O-])c(Sc2ccc(Br)cc2)s1
1000 to 10000 nM

# return recorded EC50 for input COc1cccc(CNC(=O)c2cc([N+](=O)[O-])c(Sc3c(Cl)cncc3Cl)s2)c1
≤ 1000 nM

Hello, please tell me recorded EC50 for this one: COCCCNC(=O)c1cc([N+](=O)[O-])c(Sc2c(Cl)cncc2Cl)s1
≤ 1000 nM

Give the reported value of EC50 for this record: O=C(NCCCN1CCC(F)CC1)c1cc([N+](=O)[O-])c(Sc2c(Cl)cncc2Cl)s1
1000 to 10000 nM

Please supply the value of reported EC50 for the item O=C(Nc1ccc2c(c1)OCO2)c1cc([N+](=O)[O-])c(Sc2c(Cl)cncc2Cl)s1
≤ 1000 nM
